- test.name: PAMPA permeability, liver total lipid extract (LTLE) membrane
- experimental.context: Liver total lipid extract membrane, n=3; * = not detected at acceptor side, value calculated from limit of detection
quantity.name: Mean Pe

Consider the compound CC(C)c1nc(N(C)S(C)(=O)=O)nc(-c2ccc(F)cc2)c1/C=C/[C@@H](O)C[C@@H](O)CC(=O)O and give its measured Mean Pe. < 0,48* 10-6 cm/s

Requested read-out: Mean Pe. Entry: N=C(N)c1ccc(OCCCOc2ccc(C(=N)N)cc2)cc1 < 0,76* 10-6 cm/s

Any idea what its Mean Pe is? The compound is COc1ccc2c(c1)N(C[C@H](C)CN(C)C)c1ccccc1S2 < 3,7* 10-6 cm/s

Record request: Mean Pe value, item CO/N=C(\C(=O)N[C@@H]1C(=O)N2C(C(=O)O)=C(COC(N)=O)CS[C@H]12)c1ccco1 < 1,14* 10-6 cm/s

// returns reported Mean Pe for input NC(N)=Nc1nc(CSCCC(N)=NS(N)(=O)=O)cs1 < 0,33* 10-6 cm/s

What does the record list as Mean Pe for CCn1cc(C(=O)O)c(=O)c2cc(F)c(N3CCNCC3)cc21 ? < 0,5* 10-6 cm/s

Reference source for all entries: paper PMC10053807
